B1: SLC35F2 (parent)
chain: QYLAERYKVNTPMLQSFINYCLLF

Variants of: B1
PROCEDURE DETAILS: protein stability index of a GFP-peptide fusion (GPS, HEK-293T) (PSI 1-6); higher = more stable;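 further: lentivirally expressed fusions sorted by FACS into six bins by GFP to DsRed ratio, PSI derived from sequencing read proportions per bin multiplied by bin number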
CONDITION SUMMARY: c terminus: a fixed tail appended
EXPERIMENTAL READOUT: protein stability index
The reply should be a number, written without any unit.

Lab book: protein stability index of K8M noted as 2.75

Lab book: protein stability index of F24L noted as 2.95

Lab book: protein stability index of F24Q noted as 3.26

Lab book: protein stability index of N19A noted as 3.55

Lab book: protein stability index of Q15R noted as 2.29

Lab book: protein stability index of L14A noted as 2.37

Lab book: protein stability index of Y7C noted as 3.12

Lab book: protein stability index of V9R noted as 1.86

Lab book: protein stability index of L3G noted as 2.92

Lab book: protein stability index of Q1K noted as 2.27

Lab book: protein stability index of C21G noted as 2.33

Lab book: protein stability index of F17H noted as 3.26

Lab book: protein stability index of S16G noted as 2.22

Lab book: protein stability index of N10K noted as 2.14

Lab book: protein stability index of L23W noted as 2.47

Lab book: protein stability index of M13C noted as 3.76

Lab book: protein stability index of Y20W noted as 2.03

Lab book: protein stability index of M13D noted as 2.2

Lab book: protein stability index of N10S noted as 2.36

Lab book: protein stability index of N10V noted as 2.92

Lab book: protein stability index of Q1W noted as 2.68

Lab book: protein stability index of Q1D noted as 3.23

Lab book: protein stability index of L22V noted as 3.01

Lab book: protein stability index of Y7E noted as 2.03

Lab book: protein stability index of P12F noted as 3.15

Lab book: protein stability index of T11F noted as 2.04

Lab book: protein stability index of Y2T noted as 2.29

Lab book: protein stability index of F24N noted as 2.58

Lab book: protein stability index of L3R noted as 2.98

Lab book: protein stability index of K8A noted as 2.54

Lab book: protein stability index of L22P noted as 1.82

Lab book: protein stability index of L14K noted as 2.38

Lab book: protein stability index of F17V noted as 3.29
